Assay target: T1, glucose-dependent insulinotropic peptide (gastric inhibitory polypeptide) receptor (GIPR), primary cAMP assay (human, UniProt P48546 22-466)
T1 sequence (looked up): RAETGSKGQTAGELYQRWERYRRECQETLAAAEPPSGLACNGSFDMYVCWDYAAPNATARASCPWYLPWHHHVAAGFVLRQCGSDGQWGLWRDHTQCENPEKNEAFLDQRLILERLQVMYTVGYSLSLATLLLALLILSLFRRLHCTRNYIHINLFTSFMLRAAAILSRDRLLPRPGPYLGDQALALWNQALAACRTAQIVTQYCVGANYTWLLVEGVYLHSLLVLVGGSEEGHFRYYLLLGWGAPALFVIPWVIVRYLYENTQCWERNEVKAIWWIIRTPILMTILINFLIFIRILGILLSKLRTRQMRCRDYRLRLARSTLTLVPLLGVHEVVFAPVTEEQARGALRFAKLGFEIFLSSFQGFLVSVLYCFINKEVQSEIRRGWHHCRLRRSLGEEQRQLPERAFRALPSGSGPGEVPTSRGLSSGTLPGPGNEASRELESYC
Method: cell-based or functional assay
Starred links: 1 amine or outer side, 2 acyl side, 3 side chain; linkers in the order of their positions; H or OH if unused. Non-standard residues stand in square brackets, D forms with d. Groups on a side chain read outwards from the residue. Primed or numbered codes have the meaning given here. No end group written: not given here. *: point of attachment. γGlu = O=C(O)[C@H](CCC(=O)[*:2])N[*:1]; Palmitoyl = CCCCCCCCCCCCCCCC(=O)*; αMeF = C[C@](N)(Cc1ccccc1)C(=O)O; αMeK = C[C@](N)(CCCCN)C(=O)O; Lauroyl = CCCCCCCCCCCC(=O)*; αMeS = C[C@](N)(CO)C(=O)O; PEG2′ = not defined here; Aib = CC(C)(N)C(=O)O
Quantity kind: Primary assay EC50 (cAMP), n2 (µM)

{"Binder": "H[Aib]EGS[αMeF]TSDV[αMeS]SYK([PEG2′-PEG2′-γGlu-Palmitoyl])EGEAA[αMeK]EFIAWK([PEG2′-PEG2′-γGlu-Palmitoyl])VEGG-NH2 [SEQ ID NO: 273]", "Primary assay EC50 (cAMP), n2, µM": 0.0215}
{"Binder": "H[Aib]EGS[αMeF]TSDV[αMeS]SYK([PEG2′-PEG2′-γGlu-Lauroyl])EGEAA[αMeK]EFIAK([PEG2′-PEG2′-γGlu-Lauroyl])VVEGG-NH2 [SEQ ID NO: 269]", "Primary assay EC50 (cAMP), n2, µM": 0.0228}
{"Binder": "H[Aib]EGS[αMeF]TSDK([PEG2′-PEG2′-γGlu-Lauroyl])SSYLEGEAA[αMeK]EFIK([PEG2′-PEG2′-γGlu-Lauroyl])WVVEGG-NH2 [SEQ ID NO: 256]", "Primary assay EC50 (cAMP), n2, µM": 0.0222}
{"Binder": "H[Aib]EGTFTSDVSK([PEG2′-PEG2′-γGlu-Lauroyl])YLEGEAAEEFIK([PEG2′-PEG2′-γGlu-Lauroyl])FVVEGG-NH2 [SEQ ID NO: 238]", "Primary assay EC50 (cAMP), n2, µM": 0.0224}
{"Binder": "H[Aib]EGS[αMeF]TSDK([PEG2′-PEG2′-γGlu-Lauroyl])SSYLEGEAA[αMeK]EFIAWK([PEG2′-PEG2′-γGlu-Lauroyl])VEGG-NH2 [SEQ ID NO: 258]", "Primary assay EC50 (cAMP), n2, µM": 0.0223}
{"Binder": "H[Aib]EGS[αMeF]TSDV[αMeS]SYK([PEG2′-PEG2′-γGlu-Palmitoyl])EGEAA[αMeK]EFIAK([PEG2′-PEG2′-γGlu-Palmitoyl])VVEGG-NH2 [SEQ ID NO: 272]", "Primary assay EC50 (cAMP), n2, µM": 0.0219}
{"Binder": "H[Aib]EGTFTSDVSK([PEG2′-PEG2′-γGlu-Lauroyl])YLEGEAAEEFIK([PEG2′-PEG2′-γGlu-Lauroyl])WVVEGG-NH2 [SEQ ID NO: 236]", "Primary assay EC50 (cAMP), n2, µM": 0.0222}
{"Binder": "H[Aib]EGS[αMeF]TSDVSK([PEG2′-PEG2′-γGlu-Palmitoyl])YLEGEAA[αMeK]EFIAWK([PEG2′-PEG2′-γGlu-Palmitoyl])VEGG-NH2 [SEQ ID NO: 255]", "Primary assay EC50 (cAMP), n2, µM": 0.0215}
